# System: Escherichia coli TOP10
# Test: shrunken log2 fold change of peptide-encoding DNA abundance (4.5 h post-induction vs induction); higher = less antimicrobial activity (less host growth inhibition)
# Cond: time post-induction: 4.5 h; library: site-saturation at positions 5, 18, 19, 20
Category key, based on recorded shrunken log2 fold change: low range = under -0.03, mid range = from -0.03 up to 0.1, high range = 0.1 and over

Would you please look over these solved cases?
INSERT INTO assay_data (sequence_input, study_system, assigned_class) VALUES
  ('RRIRWRPPRLPRPRPRPARFPRP', 'Escherichia coli TOP10', 'high range'),
  ('RRIRCRPPRLPRPRPRPFRGPRP', 'Escherichia coli TOP10', 'low range'),
  ('RRIRVRPPRLPRPRPRPAFCPRP', 'Escherichia coli TOP10', 'high range'),
  ('RRIRCRPPRLPRPRPRPELQPRP', 'Escherichia coli TOP10', 'high range');

**Q:** Any idea which band RRIRTRPPRLPRPRPRPQVQPRP is in?
**A:** low range

**Q:** Could you tell me which band RRIRDRPPRLPRPRPRPFFAPRP belongs to?
**A:** high range

**Q:** Given RRIRKRPPRLPRPRPRPNGKPRP , name the class its shrunken log2 fold change places it in.
**A:** low range

**Q:** # bin lookup: classify RRIRMRPPRLPRPRPRPYQHPRP by its shrunken log2 fold change
**A:** mid range

**Q:** Lab note: sort RRIRSRPPRLPRPRPRPVEEPRP into the matching shrunken log2 fold change band.
**A:** mid range

**Q:** Classify this sequence: RRIRQRPPRLPRPRPRPKEGPRP
**A:** mid range

**Q:** Categorize the following entry: RRIRPRPPRLPRPRPRPERSPRP
**A:** mid range

###

Measured shrunken log2 fold change accompanies every entry in the list below.
# System: Escherichia coli TOP10
# Test: shrunken log2 fold change of peptide-encoding DNA abundance (4.5 h post-induction vs induction); higher = less antimicrobial activity (less host growth inhibition)
# Cond: time post-induction: 4.5 h; library: site-saturation at positions 5, 18, 19, 20
Please reply with the number alone, leaving off any unit.

INSERT INTO assay_data (sequence_input, meas_value) VALUES
  ('RRIRGRPPRLPRPRPRPYGYPRP', 0.158),
  ('RRIRQRPPRLPRPRPRPCKPPRP', -0.207),
  ('RRIRKRPPRLPRPRPRPNECPRP', 0.157),
  ('RRIRFRPPRLPRPRPRPSKSPRP', -0.123),
  ('RRIRNRPPRLPRPRPRPKFPPRP', -0.0759);

**Q:** Could you tell me which shrunken log2 fold change is on file for RRIRDRPPRLPRPRPRPWCSPRP ?
**A:** -0.348

**Q:** Request the reported shrunken log2 fold change associated with RRIRQRPPRLPRPRPRPCLMPRP
**A:** -0.0141

**Q:** # lookup: shrunken log2 fold change of RRIRIRPPRLPRPRPRPNSRPRP
**A:** -0.0636

**Q:** Param item = RRIRSRPPRLPRPRPRPRHVPRP ; retrieve measured shrunken log2 fold change.
**A:** -0.0732

**Q:** Entry RRIRTRPPRLPRPRPRPAVSPRP has what shrunken log2 fold change?
**A:** 0.00645

**Q:** # shrunken log2 fold change lookup, item RRIRIRPPRLPRPRPRPFQVPRP
**A:** 0.0102

**Q:** Item RRIRNRPPRLPRPRPRPRGEPRP has what recorded shrunken log2 fold change?
**A:** -0.029

**Q:** Entry RRIRGRPPRLPRPRPRPIGVPRP has what shrunken log2 fold change?
**A:** -0.0542

**Q:** Would you mind telling me what shrunken log2 fold change value was observed for RRIRRRPPRLPRPRPRPPNCPRP ?
**A:** 0.15

**Q:** Could you tell me which shrunken log2 fold change is on file for RRIRARPPRLPRPRPRPLRYPRP ?
**A:** -0.00438

###

# Tested on: Escherichia coli TOP10
# Test: shrunken log2 fold change of peptide-encoding DNA abundance (4.5 h post-induction vs induction); higher = less antimicrobial activity (less host growth inhibition)
# Cond: time post-induction: 4.5 h; library: site-saturation at positions 5, 18, 19, 20
Classes based on shrunken log2 fold change: lower: < -0.3; middle: ≥ -0.3 and < 0.02; upper: ≥ 0.02

Below, 5 sequences whose answers are already recorded.
INSERT INTO measurements (sequence_input, assigned_class) VALUES
  ('RRIRGRPPRLPRPRPRPEDMPRP', 'upper'),
  ('RRIRPRPPRLPRPRPRPYWEPRP', 'middle'),
  ('RRIRCRPPRLPRPRPRPIFHPRP', 'lower'),
  ('RRIRHRPPRLPRPRPRPCQVPRP', 'lower'),
  ('RRIRCRPPRLPRPRPRPMIPPRP', 'middle');

**Q:** Any idea which band RRIRERPPRLPRPRPRPFHKPRP is in?
**A:** lower

**Q:** Category of RRIRYRPPRLPRPRPRPLNQPRP :
**A:** lower

**Q:** State the band of RRIRMRPPRLPRPRPRPPPMPRP
**A:** upper

###

# System: Escherichia coli TOP10
# Test: shrunken log2 fold change of peptide-encoding DNA abundance (4.5 h post-induction vs induction); higher = less antimicrobial activity (less host growth inhibition)
# Cond: time post-induction: 4.5 h; library: site-saturation at positions 5, 18, 19, 20
// values below are reported shrunken log2 fold change
Lab note: jot down the number only; don't add units.

**Q:** Find the recorded shrunken log2 fold change belonging to RRIRFRPPRLPRPRPRPGGRPRP and report it.
**A:** 0.323

**Q:** Tell me the measured shrunken log2 fold change of RRIRSRPPRLPRPRPRPFNGPRP , please.
**A:** -0.0626

**Q:** Entry under review: RRIRQRPPRLPRPRPRPEDQPRP . Reported shrunken log2 fold change?
**A:** 0.0199

###

Listed sequences paired with reported shrunken log2 fold change
# System: Escherichia coli TOP10
# Test: shrunken log2 fold change of peptide-encoding DNA abundance (4.5 h post-induction vs induction); higher = less antimicrobial activity (less host growth inhibition)
# Cond: time post-induction: 4.5 h; library: site-saturation at positions 5, 18, 19, 20
Write the number on its own, no unit after it.

**Q:** I have this sequence here, RRIRTRPPRLPRPRPRPPQIPRP , and I need its recorded shrunken log2 fold change.
**A:** 0.16

**Q:** Endpoint output: shrunken log2 fold change of RRIRVRPPRLPRPRPRPVLPPRP . Value?
**A:** 0.0268

**Q:** Any idea what its shrunken log2 fold change is? The sequence is RRIRWRPPRLPRPRPRPADRPRP
**A:** 0.0754

**Q:** Dear colleague, I am looking for the recorded shrunken log2 fold change of the following sequence: RRIRTRPPRLPRPRPRPWKNPRP
**A:** -0.0599

**Q:** GET /values?readout=shrunken log2 fold change&item= RRIRLRPPRLPRPRPRPPAMPRP
**A:** 0.42

**Q:** Item RRIRIRPPRLPRPRPRPNIAPRP has what recorded shrunken log2 fold change?
**A:** -0.407

**Q:** // query shrunken log2 fold change value for entry RRIRNRPPRLPRPRPRPIQQPRP
**A:** -0.000431

**Q:** Fill in: shrunken log2 fold change of RRIRLRPPRLPRPRPRPTNAPRP is ___
**A:** 0.00567

###

# System: Escherichia coli TOP10;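 also: peptides expressed intracellularly from a pBAD plasmid library in pooled LB shake-flask culture, induced with 0.3% L-arabinose, DNA abundance read by NGS, three biological replicates, DESeq2 with apeglm shrinkage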
# Test: shrunken log2 fold change of peptide-encoding DNA abundance (4.5 h post-induction vs induction); higher = less antimicrobial activity (less host growth inhibition)
# Cond: time post-induction: 4.5 h; library: site-saturation at positions 5, 18, 19, 20
Readout type: shrunken log2 fold change
Respond numerically, and do not add a unit to the figure.

INSERT INTO measurements (sequence_input, study_system, readout_type, meas_value) VALUES
  ('RRIRQRPPRLPRPRPRPCLGPRP', 'Escherichia coli TOP10', 'shrunken log2 fold change', 0.172),
  ('RRIRNRPPRLPRPRPRPWQPPRP', 'Escherichia coli TOP10', 'shrunken log2 fold change', 0.104),
  ('RRIRERPPRLPRPRPRPGHKPRP', 'Escherichia coli TOP10', 'shrunken log2 fold change', -0.324),
  ('RRIRHRPPRLPRPRPRPSHNPRP', 'Escherichia coli TOP10', 'shrunken log2 fold change', -0.433),
  ('RRIRQRPPRLPRPRPRPRMMPRP', 'Escherichia coli TOP10', 'shrunken log2 fold change', -0.161),
  ('RRIRLRPPRLPRPRPRPISVPRP', 'Escherichia coli TOP10', 'shrunken log2 fold change', -0.343),
  ('RRIRERPPRLPRPRPRPFNQPRP', 'Escherichia coli TOP10', 'shrunken log2 fold change', -0.279),
  ('RRIRVRPPRLPRPRPRPKQYPRP', 'Escherichia coli TOP10', 'shrunken log2 fold change', -0.558);

**Q:** What value of shrunken log2 fold change has been reported for the following sequence? RRIRPRPPRLPRPRPRPVWHPRP
**A:** 0.186

**Q:** Param item = RRIRCRPPRLPRPRPRPWQLPRP ; retrieve measured shrunken log2 fold change.
**A:** -0.263

**Q:** So what's the measured shrunken log2 fold change for this one? RRIRKRPPRLPRPRPRPCKAPRP
**A:** 0.0525

**Q:** Name the recorded shrunken log2 fold change for RRIRCRPPRLPRPRPRPPEAPRP .
**A:** 0.968

**Q:** Requested field: shrunken log2 fold change. Item: RRIRERPPRLPRPRPRPWTQPRP
**A:** -0.298

**Q:** Quick one: shrunken log2 fold change for RRIRHRPPRLPRPRPRPDVAPRP ?
**A:** -0.00146

**Q:** Would you mind telling me what shrunken log2 fold change value was observed for RRIRARPPRLPRPRPRPWIVPRP ?
**A:** -0.0598
